Kindly state NanoBRET IC50 for each of the entries shown.
Test target: T1, B-cat-Halo (beta-catenin HaloTag fusion expressed in HEK293 cells) (Homo sapiens (Human), UniProt P35222 1-781)
T1 sequence: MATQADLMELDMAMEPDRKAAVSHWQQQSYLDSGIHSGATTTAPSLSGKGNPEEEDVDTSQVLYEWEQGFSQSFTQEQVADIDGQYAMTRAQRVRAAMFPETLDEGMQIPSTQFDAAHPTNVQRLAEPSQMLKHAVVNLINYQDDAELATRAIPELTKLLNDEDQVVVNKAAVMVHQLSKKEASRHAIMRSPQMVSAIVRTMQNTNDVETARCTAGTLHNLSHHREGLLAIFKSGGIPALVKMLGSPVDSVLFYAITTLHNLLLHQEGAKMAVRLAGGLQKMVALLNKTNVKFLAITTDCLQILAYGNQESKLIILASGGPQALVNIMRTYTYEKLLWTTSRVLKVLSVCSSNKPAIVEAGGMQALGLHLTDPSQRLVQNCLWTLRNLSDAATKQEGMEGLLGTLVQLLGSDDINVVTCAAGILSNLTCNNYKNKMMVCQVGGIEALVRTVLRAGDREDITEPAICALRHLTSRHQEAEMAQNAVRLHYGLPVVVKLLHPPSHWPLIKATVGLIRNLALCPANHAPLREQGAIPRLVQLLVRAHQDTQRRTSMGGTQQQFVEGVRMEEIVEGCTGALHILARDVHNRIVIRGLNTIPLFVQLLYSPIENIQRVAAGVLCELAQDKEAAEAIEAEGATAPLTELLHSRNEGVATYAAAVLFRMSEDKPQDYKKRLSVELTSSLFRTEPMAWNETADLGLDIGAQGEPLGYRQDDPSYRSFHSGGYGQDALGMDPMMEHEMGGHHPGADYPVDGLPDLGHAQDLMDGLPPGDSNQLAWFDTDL
Procedure summary: cell-based or functional assay
Starred links: 1 amine or outer side, 2 acyl side, 3 side chain; linkers in the order of their positions; H or OH if unused. Positions of bridges follow the written chain, without caps; N, C: chain ends. Non-standard residues stand in square brackets, D forms with d. Primed or numbered codes have the meaning given here. PyrS2″ = (S)-3-amino-1-((pent-4-en-1-yloxy)carbonyl)pyrrolidine-3-carboxylic acid (stapling residue), C=CCCCOC(=O)N1CC[C@@](N[*:1])(C(=O)[*:2])C1; PyrS2 = (S)-3-amino-1-((pent-4-en-1-yloxy)carbonyl)pyrrolidine-3-carboxylic acid, C=CCCCOC(=O)N1CC[C@@](N[*:1])(C(=O)[*:2])C1; B5(7) = 2-amino-2-(pent-4-en-1-yl)hept-6-enoic acid, two olefinic side chains, C=CCCCC(CCCC=C)(N[*:1])C(=O)[*:2]; B5(3) = 2,2-bis(4-pentenyl)glycine (stitching residue), C=CCCCC(CCCC=C)(N[*:1])C(=O)[*:2]; B5 = 2-amino-2-(pent-4-en-1-yl)hept-6-enoic acid, C=CCCCC(CCCC=C)(N[*:1])C(=O)[*:2]; Bta = N[C@@H](Cc1csc2ccccc12)C(=O)O; αAllylPro = C=CC[C@@]1(C(=O)O)CCCN1; tBuAla = CC(C)(C)C[C@H](N)C(=O)O; 3Thi = N[C@@H](Cc1ccsc1)C(=O)O

1. Ac-[αAllylPro]D[tBuAla][B5]DDAAFN[PyrS2″][3Thi][Bta]S-NH2 (staple 1-4, 4-11) [I-815]; 11.8 µM
2. Ac-[αAllylPro]D[tBuAla][B5(7)]DDAAFN[PyrS2][3Thi][Bta]H[dA]-NH2 (staple 1-4, 4-11) [I-823]; > 10 µM
3. Ac-[αAllylPro]D[tBuAla][B5]DDAAFN[PyrS2″][3Thi][Bta]T-NH2 (staple 1-4, 4-11) [I-814]; 12.7 µM
4. Ac-[αAllylPro]D[tBuAla][B5]DDAAFN[PyrS2″][3Thi][Bta]Q[dA]-NH2 (staple 1-4, 4-11) [I-822]; 7.7 µM
5. Ac-[αAllylPro]D[tBuAla][B5]DDAAFN[PyrS2″][3Thi][Bta][dT]-NH2 (staple 1-4, 4-11) [I-817]; 6.8 µM

As a next step, examine the binder that follows.
Prompt line: State the recorded NanoBRET IC50 for this entry: Ac-[αAllylPro]D[tBuAla][B5(3)]DDAAFT[PyrS2″][3Thi][Bta]Q-NH2 (staple 1-4, 4-11) [I-809]
Response line: 11.7 µM
